Reference for the values: ChEMBL document CHEMBL1153478

target: Melanin-concentrating hormone receptor 1 (Homo sapiens, UniProt Q99705); experiment: Antagonist activity at human MCH1 receptor expressed in CHO cells assessed as inhibition of MCH-induced intracellular calcium level by FLIPR assay; type: functional, cell-based
Sequence (Q99705 whole entry): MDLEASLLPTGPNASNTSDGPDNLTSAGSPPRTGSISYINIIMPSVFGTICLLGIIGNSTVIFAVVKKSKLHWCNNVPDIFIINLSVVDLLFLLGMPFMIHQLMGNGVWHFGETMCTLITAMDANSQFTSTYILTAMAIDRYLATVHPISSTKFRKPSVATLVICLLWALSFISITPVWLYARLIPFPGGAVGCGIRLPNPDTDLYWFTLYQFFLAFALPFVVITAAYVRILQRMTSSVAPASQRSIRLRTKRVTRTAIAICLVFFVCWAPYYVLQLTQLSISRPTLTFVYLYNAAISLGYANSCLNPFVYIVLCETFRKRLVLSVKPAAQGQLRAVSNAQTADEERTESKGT
Measure: pIC50
API: returns pIC50 as number; meaning -log10 of concentration in mol/L.

Cc1c(C2CC2)nc2ccc(NC(=O)c3ncc(-c4ccc(F)cc4)cn3)cn12 ... 7.54
Cc1c(C2CC2)nc2ccc(NC(=O)c3ccc(-c4ccc(F)nc4)nc3)cn12 ... 6.66

--- query ---
// query pIC50 value for entry `COc1ccc(-c2ccc(C(=O)Nc3ccc4nc(C5CC5)c(C)n4c3)cc2)nc1`
6.91
